Target: UniProt Q99572
Sequence (Q99572 1-595): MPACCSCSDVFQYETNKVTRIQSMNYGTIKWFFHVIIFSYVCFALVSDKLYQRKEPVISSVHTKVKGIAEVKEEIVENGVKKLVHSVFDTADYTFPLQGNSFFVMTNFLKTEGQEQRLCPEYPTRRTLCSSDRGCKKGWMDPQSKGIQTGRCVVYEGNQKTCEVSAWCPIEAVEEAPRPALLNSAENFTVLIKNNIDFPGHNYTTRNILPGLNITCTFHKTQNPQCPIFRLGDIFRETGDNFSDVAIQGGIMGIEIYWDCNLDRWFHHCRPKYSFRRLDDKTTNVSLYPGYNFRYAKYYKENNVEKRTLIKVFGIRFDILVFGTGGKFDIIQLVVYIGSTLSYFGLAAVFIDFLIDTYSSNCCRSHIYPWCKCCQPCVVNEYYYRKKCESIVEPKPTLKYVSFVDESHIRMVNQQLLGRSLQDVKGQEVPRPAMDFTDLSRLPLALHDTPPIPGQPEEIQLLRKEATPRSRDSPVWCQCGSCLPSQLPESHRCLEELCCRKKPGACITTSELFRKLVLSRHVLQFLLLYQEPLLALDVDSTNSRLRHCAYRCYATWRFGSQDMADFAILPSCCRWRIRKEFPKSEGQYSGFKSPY

{"compound": "[11CH3]N1C(=O)CC[C@H]1C(=O)NCc1cccc(C(F)(F)F)c1Cl [[^11C]GSK1482160]", "unitOfMeasurement": "nM", "Ki": 5.14}
